src = ChEMBL document CHEMBL1148540

Target: RNA-directed RNA polymerase (Hepacivirus hominis)
Assay: Inhibitory activity against delta-21 C-terminally truncated HCV 1b (BB7 isolate) RNA dependent RNA polymerase
Design: species or system Hepatitis C virus subtype 1b
test readout: pIC50
pIC50 (log units): -log10 of the concentration in mol/L.

pIC50 reported for this compound CCOC(=O)c1c(NC(=O)NS(=O)(=O)c2nccn2C)sc2c1CCC(C)(C)C2 : 6.82

Quick note, pIC50 for CCOC(=O)c1c(NC(=O)NS(=O)(=O)c2ccccc2)sc2c1CCC(C)(C)C2 landed at 6.70

Per the records, this compound ( CCOC(=O)c1c(NC(=O)NS(=O)(=O)N2CCc3ccccc3C2)sc2c1CCC(C)(C)C2 ) has pIC50 equal to 6.22

// sample CCOC(=O)c1c(NC(=O)NS(=O)(=O)N2CCN(C(C)=O)CC2)sc2c1CCC(C)(C)C2 , its pIC50 was 6.22

For CCOC(=O)c1c(NC(=O)NS(=O)(=O)c2ccc(F)cc2)sc2c1CCC(C)(C)C2 the compound record lists pIC50 as 6.30

The reported pIC50 of the compound CCOC(=O)c1c(NC(=O)NS(=O)(=O)c2ccnn2C)sc2c1CCC(C)(C)C2 was 6.59

Entry under test: CCOC(=O)c1c(NC(=O)NS(=O)(=O)N2CCCCCC2)sc2c1CCC(C)(C)C2 . Its pIC50 was 5.96

Recorded pIC50 (compound CCOC(=O)c1c(NC(=O)NS(=O)(=O)c2ccc(C)cc2)sc2c1CCC(C)(C)C2 ): 6.40

Input CCOC(=O)c1c(NC(=O)NS(=O)(=O)N2CCCC2)sc2c1CCC(C)(C)C2 . Output pIC50: 6.40

----------
Target: RNA-directed RNA polymerase (Hepacivirus hominis)
Test: Inhibitory activity against HCV 4a NS5B full length RNA dependent RNA polymerase
Design: species or system Hepatitis C virus subtype 4a
Recorded IC50 for the following compounds
Provide the reading as a plain figure in nM.

// solved cases for IC50 follow
compound=CCOC(=O)c1c(NC(=O)NS(=O)(=O)N2CCN(C(C)=O)CC2)sc2c1CCC(C)(C)C2 test_readout=IC50 observed=300
compound=CCOC(=O)c1c(NC(=O)NS(=O)(=O)c2ccc(C)cn2)sc2c1CCC(C)(C)C2 test_readout=IC50 observed=50
compound=CCOC(=O)c1c(NC(=O)NS(=O)(=O)c2ccc([N+](=O)[O-])cc2)sc2c1CCCC2 test_readout=IC50 observed=2800
compound=CCOC(=O)c1c(NC(=O)NS(=O)(=O)c2cccc3ccccc23)sc2c1CCCC2 test_readout=IC50 observed=700
compound=CCOC(=O)c1c(NC(=O)c2nccnc2C(=O)O)sc2c1CCCC2 test_readout=IC50 observed=4000

Consider the record given below.
What the record says about CCOC(=O)c1c(NC(=O)NS(=O)(=O)c2ccc(C)cc2)sc2c1CCCC2 : IC50 is 1000

----------
Molecular target: RNA-directed RNA polymerase (Hepacivirus hominis)
Assay: Inhibitory activity against delta-21 C-terminally truncated HCV 1b (BB7 isolate) RNA dependent RNA polymerase
Design: species or system Hepatitis C virus subtype 1b
Recorded IC50 values for a group of compounds are listed next.
Give the quantity in nM, number only.

Below are worked cases with known answers.
structure_smiles_string=CCOC(=O)c1c(NC(=O)NS(=O)(=O)N2CCc3ccccc32)sc2c1CCC(C)(C)C2 system_under_test="RNA-directed RNA polymerase (Hepacivirus hominis)" test_readout=IC50 observed=260
structure_smiles_string=CCOC(=O)c1c(NC(=O)NS(=O)(=O)c2ccccc2C(F)(F)F)sc2c1CCC(C)(C)C2 system_under_test="RNA-directed RNA polymerase (Hepacivirus hominis)" test_readout=IC50 observed=200
structure_smiles_string=CCOC(=O)c1c(NC(=O)NS(=O)(=O)c2ccccc2OC(F)(F)F)sc2c1CCC(C)(C)C2 system_under_test="RNA-directed RNA polymerase (Hepacivirus hominis)" test_readout=IC50 observed=400
structure_smiles_string=CCOC(=O)c1c(NC(=O)NS(=O)(=O)c2ccc(C#N)cc2)sc2c1CCC(C)(C)C2 system_under_test="RNA-directed RNA polymerase (Hepacivirus hominis)" test_readout=IC50 observed=400
structure_smiles_string=CCOC(=O)c1c(NC(=O)NS(=O)(=O)N2CCCCC2)sc2c1CCC(C)(C)C2 system_under_test="RNA-directed RNA polymerase (Hepacivirus hominis)" test_readout=IC50 observed=1000

Kindly note the recorded IC50 for CCOC(=O)c1c(NC(=O)NS(=O)(=O)c2ncccn2)sc2c1CCC(C)(C)C2 , which is 300

Record CCOC(=O)c1c(NC(=O)NS(=O)(=O)c2ccc(C)cn2)sc2c1CCC(C)(C)C2 , field IC50: 200

Sure, the documented IC50 for CCOC(=O)c1c(NC(=O)NS(=O)(=O)N2CCN(C)CC2)sc2c1CCC(C)(C)C2 is 2000

IC50 reading for CCOC(=O)c1c(NC(=O)NS(=O)(=O)N2CCOCC2)sc2c1CCC(C)(C)C2 : 2500

Data point: CCOC(=O)c1c(NC(=O)NS(=O)(=O)c2ccccn2)sc2c1CCC(C)(C)C2 ; IC50 = 150

----------
Target: RNA-directed RNA polymerase (Hepacivirus hominis, UniProt O39930)
Sequence (O39930 whole entry, the tested form may be a part): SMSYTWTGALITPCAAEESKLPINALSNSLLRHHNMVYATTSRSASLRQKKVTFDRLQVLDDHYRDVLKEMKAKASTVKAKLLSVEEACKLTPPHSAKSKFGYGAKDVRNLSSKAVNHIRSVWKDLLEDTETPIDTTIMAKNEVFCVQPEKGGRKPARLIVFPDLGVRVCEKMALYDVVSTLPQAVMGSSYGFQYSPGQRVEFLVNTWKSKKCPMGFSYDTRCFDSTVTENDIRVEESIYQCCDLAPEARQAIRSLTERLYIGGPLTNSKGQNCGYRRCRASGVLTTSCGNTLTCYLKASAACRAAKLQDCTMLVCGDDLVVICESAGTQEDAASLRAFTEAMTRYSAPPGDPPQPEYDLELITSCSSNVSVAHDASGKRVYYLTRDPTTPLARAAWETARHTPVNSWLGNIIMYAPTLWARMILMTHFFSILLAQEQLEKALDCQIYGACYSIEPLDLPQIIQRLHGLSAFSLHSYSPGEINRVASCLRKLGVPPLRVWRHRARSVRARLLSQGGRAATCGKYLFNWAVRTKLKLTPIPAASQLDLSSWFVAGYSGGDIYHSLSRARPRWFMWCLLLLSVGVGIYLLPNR
Assay: Inhibitory activity against HCV 4a NS5B full length RNA dependent RNA polymerase
Design: species or system Hepatitis C virus subtype 4a
Labelling field: enter Y if recorded IC50 is less than 200 nM. Enter N if it equals or exceeds that cut-off.

Worked set:
compound=CCOC(=O)c1c(NC(=O)NS(=O)(=O)c2ccc(F)cc2)sc2c1CCC(C)(C)C2 class_name=Y
compound=CCOC(=O)c1c(NC(=O)NS(=O)(=O)N2CCCCCC2)sc2c1CCC(C)(C)C2 class_name=N
compound=CCOC(=O)c1c(NC(=O)NS(=O)(=O)c2ccc(C)cc2)sc2c1CCC(C)(C)C2 class_name=Y

Q: Please check: IC50 for CCOC(=O)c1c(NC(=O)NS(=O)(=O)c2ccccn2)sc2c1CCC(C)(C)C2 , strictly under 200 nM or not?
A: Y

Q: is_below(IC50, 200 nM) for CCOC(=O)c1c(NC(=O)NS(=O)(=O)c2ccc(C)cc2)sc2c1C(C)CCC2 (stereo not drawn) ?
A: N

Q: Quick check: does CCOC(=O)c1c(NC(=O)NS(=O)(=O)c2ccnn2C)sc2c1CCC(C)(C)C2 have IC50 under 200 nM?
A: Y

----------
Molecular target: RNA-directed RNA polymerase (Hepacivirus hominis)
Experiment: Inhibitory activity against HCV 4a NS5B full length RNA dependent RNA polymerase
Parameters: species or system Hepatitis C virus subtype 4a
Mark satisfied only when IC50 stays strictly below 400 nM. Values equal to the cut-off are not satisfied.

Worked set:
compound=CCOC(=O)c1c(NC(=O)NS(=O)(=O)N2CCc3ccccc32)sc2c1CCC(C)(C)C2 system_under_test="RNA-directed RNA polymerase (Hepacivirus hominis)" class_name=satisfied
compound=CCOC(=O)c1c(NC(=O)NS(=O)(=O)c2ccc(C#N)cc2)sc2c1CCC(C)(C)C2 system_under_test="RNA-directed RNA polymerase (Hepacivirus hominis)" class_name=satisfied

Q: For this compound, is IC50 lower than 400 nM? CCOC(=O)c1c(NC(=O)NS(=O)(=O)c2cccc(OC)c2)sc2c1CCCC2
A: not satisfied

Q: Consider CCOC(=O)c1c(NC(=O)NS(=O)(=O)N2CCCCC2)sc2c1CCC(C)(C)C2 . Does its IC50 lie strictly below 400 nM?
A: satisfied

Q: API: query returns whether the compound falls strictly under 400 nM in IC50. Query: CCOC(=O)c1c(NC(=O)NS(=O)(=O)c2ccccc2C)sc2c1CCCC2
A: not satisfied

Q: Strictly below 400 nM: is that where IC50 of CCOC(=O)c1c(NC(=O)NS(=O)(=O)c2ccc(C)cc2)sc2c1CCC(C)C2 (configuration not stated) sits?
A: satisfied

Q: Dear reviewer, please state whether CCOC(=O)c1c(NC(=O)NS(=O)(=O)c2ccccc2)sc2c1CCC(C)(C)C2 has IC50 strictly beneath 400 nM.
A: satisfied

Q: Does this compound meet the criterion IC50 < 400 nM? CCOC(=O)c1c(NC(=O)NS(=O)(=O)c2ncccn2)sc2c1CCC(C)(C)C2
A: satisfied

Q: Is the reported IC50 for CCOC(=O)c1c(NC(=O)NS(=O)(=O)c2cccc(C)c2)sc2c1CCCC2 strictly below 400 nM?
A: not satisfied

Q: In plain terms, does CCCCS(=O)(=O)NC(=O)Nc1sc2c(c1C(=O)OCC)CCCC2 come in under 400 nM for IC50?
A: not satisfied

Q: Item CCOC(=O)c1c(NC(=O)NS(=O)(=O)c2ccc(Cl)cc2)sc2c1CCCC2 : IC50 beneath 400 nM, strictly?
A: not satisfied

Q: # strict comparison: is reported IC50 < 400 nM? input = CCOC(=O)c1c(NC(=O)NS(=O)(=O)N2CCOCC2)sc2c1CCC(C)(C)C2
A: satisfied

Q: Quick check: does CCOC(=O)c1c(NC(=O)NS(=O)(=O)c2ccccc2OC(F)(F)F)sc2c1CCC(C)(C)C2 have IC50 under 400 nM?
A: satisfied

Q: I wonder whether CCOC(=O)c1c(NC(=O)NS(=O)(=O)c2ccc(F)cc2)sc2c1CCCC2 has IC50 below 400 nM. Can you tell?
A: not satisfied

Q: Dear colleague, could you confirm whether IC50 of CCOC(=O)c1c(NC(=O)NS(=O)(=O)N2CCc3ccccc3C2)sc2c1CCC(C)(C)C2 falls below 400 nM? Thanks.
A: satisfied

Q: Could you please tell me whether IC50 recorded for CCOC(=O)c1c(NC(=O)NS(=O)(=O)c2ccc(C)cc2)sc2c1CC(C)CC2 (configuration not stated) is less than 400 nM?
A: not satisfied

Q: Identify whether the compound CCOC(=O)c1c(NC(=O)NS(=O)(=O)c2nccn2C)sc2c1CCC(C)(C)C2 records IC50 below 400 nM.
A: satisfied

Q: Here's an entry: CCOC(=O)c1c(NC(=O)NS(=O)(=O)N2CCCC2)sc2c1CCC(C)(C)C2 . Is its IC50 below 400 nM?
A: satisfied

Q: Is the reported IC50 for CCOC(=O)c1c(NC(=O)NS(=O)(=O)c2ccccc2C(F)(F)F)sc2c1CCC(C)(C)C2 strictly below 400 nM?
A: satisfied

Q: Check if IC50 falls below 400 nM for CCOC(=O)c1c(NC(=O)NS(=O)(=O)c2ccccc2)sc2c1CCCC2 .
A: not satisfied

Q: Take the compound CCOC(=O)c1c(NC(=O)NS(C)(=O)=O)sc2c1CCCC2 and say whether its IC50 is less than 400 nM.
A: not satisfied
